assay-comment: Autosampler stability of ready for injection samples
Assay type: physicochemical, human
setup-conditions: validation standard MOV
measure-name: Autosampler (24h, 4°C) Accuracy [%] (%)
Write down the numeric answer in % and omit the unit.

Q. Entry Cc1ccc(Nc2nccc(N(C)c3ccc4c(C)n(C)nc4c3)n2)cc1S(N)(=O)=O has what Autosampler (24h, 4°C) Accuracy [%]?
A. 101.7

Q. // lookup Autosampler (24h, 4°C) Accuracy [%] for Cc1[nH]c2ccccc2c1CCNCc1ccc(/C=C/C(=O)NO)cc1
A. 102.4

Q. For the molecule CNC(=O)c1ccc(N2C(=S)N(c3cnc(C#N)c(C(F)(F)F)c3)C(=O)C23CCC3)cc1F [Apalutamide] , what Autosampler (24h, 4°C) Accuracy [%] is on record?
A. 106.8

Q. Any idea what its Autosampler (24h, 4°C) Accuracy [%] is? The molecule is COc1cc2ncnc(Nc3ccc(F)c(Cl)c3)c2cc1OCCCN1CCOCC1
A. 105.6

Q. Return reported Autosampler (24h, 4°C) Accuracy [%]; argument: COC(=O)c1ccc2c(c1)NC(=O)/C2=C(\Nc1ccc(N(C)C(=O)CN2CCN(C)CC2)cc1)c1ccccc1
A. 102.7

Q. Would you mind telling me what Autosampler (24h, 4°C) Accuracy [%] value was observed for COc1cc2c(Nc3ccc(Br)cc3F)ncnc2cc1OCC1CCN(C)CC1 ?
A. 108.2

Q. Dear colleague, I am looking for the recorded Autosampler (24h, 4°C) Accuracy [%] of the following molecule: Cc1cc(Nc2ncc(Cl)c(Nc3ccccc3S(=O)(=O)C(C)C)n2)c(OC(C)C)cc1C1CCNCC1
A. 100.8

Q. Tell me the measured Autosampler (24h, 4°C) Accuracy [%] of CNC(=O)c1ccc(N2C(=S)N(c3ccc(C#N)c(C(F)(F)F)c3)C(=O)C2(C)C)cc1F [Enzalutamide] , please.
A. 108.0

* * *

Collected Long-term stability, 1 month, -20°C Accuracy [%] values appear next to each entry.
assay-comment: Long-term stability in spiked pooled human plasma
setup-conditions: validation standard LLOV

Please review the entries below; each comes with its answer.
>  <structure>
N#CC[C@H](C1CCCC1)n1cc(-c2ncnc3[nH]ccc23)cn1

>  <measured>
95.6%

$$$$
>  <structure>
C#Cc1cccc(Nc2ncnc3cc(OCCOC)c(OCCOC)cc23)c1

>  <measured>
113.5%

$$$$
>  <structure>
CO[C@@H]1[C@H](N(C)C(=O)c2ccccc2)C[C@H]2O[C@]1(C)n1c3ccccc3c3c4c(c5c6ccccc6n2c5c31)C(=O)NC4

>  <measured>
109.4%

$$$$
>  <structure>
O=C(Nc1cnn2ccc(N3CCC[C@@H]3c3cc(F)ccc3F)nc12)N1CC[C@H](O)C1

>  <measured>
85.6%

$$$$

Q. Consider the compound shown here: CC(C)(C)c1nc(-c2cccc(NS(=O)(=O)c3c(F)cccc3F)c2F)c(-c2ccnc(N)n2)s1 What is its recorded Long-term stability, 1 month, -20°C Accuracy [%]?
A. 101.0%

Q. Reported Long-term stability, 1 month, -20°C Accuracy [%], compound CN(C)C/C=C/C(=O)Nc1cc2c(Nc3ccc(F)c(Cl)c3)ncnc2cc1O[C@H]1CCOC1 : ____
A. 70.0%

Q. Need Long-term stability, 1 month, -20°C Accuracy [%], item O=C(c1cc(Cc2n[nH]c(=O)c3ccccc23)ccc1F)N1CCN(C(=O)C2CC2)CC1
A. 112.8%

Q. State the recorded Long-term stability, 1 month, -20°C Accuracy [%] for this entry: Cc1ccc(NC(=O)c2ccc(CN3CCN(C)CC3)cc2)cc1Nc1nccc(-c2cccnc2)n1
A. 88.0%

Q. Consider the compound C[C@]12CC[C@H](O)CC1=CC[C@@H]1[C@@H]2CC[C@]2(C)C(c3cccnc3)=CC[C@@H]12 and give its measured Long-term stability, 1 month, -20°C Accuracy [%].
A. 96.5%

Q. Quick one: Long-term stability, 1 month, -20°C Accuracy [%] of Cc1c(C(=O)Nc2ccc(N3C[C@@H](C)O[C@@H](C)C3)nc2)cccc1-c1ccc(OC(F)(F)F)cc1 ?
A. 109.9%

* * *

assay-comment: Short-term stability in spiked pooled human plasma (bench-top, 4 °C, 56 °C)
setup-conditions: validation standard MOV
measure-name: Short-time stability (1h, 56°C) Accuracy [%] (%)
The response must be a number in % with no trailing unit.

Consider the worked cases shown below.
>  <molecule>
N#CC[C@H](C1CCCC1)n1cc(-c2ncnc3[nH]ccc23)cn1

>  <reading-unit>
%

>  <measured>
60.9

$$$$
>  <molecule>
COc1cc2c(Nc3ccc(Br)cc3F)ncnc2cc1OCC1CCN(C)CC1

>  <reading-unit>
%

>  <measured>
49.3

$$$$
>  <molecule>
Cc1[nH]c2ccccc2c1CCNCc1ccc(/C=C/C(=O)NO)cc1

>  <reading-unit>
%

>  <measured>
48.8

$$$$
>  <molecule>
COc1cc2nccc(Oc3ccc(NC(=O)C4(C(=O)Nc5ccc(F)cc5)CC4)cc3)c2cc1OC [Cabozantinib]

>  <reading-unit>
%

>  <measured>
51.8

$$$$
>  <molecule>
COc1cc2nccc(Oc3ccc(NC(=O)Nc4cc(C)on4)c(Cl)c3)c2cc1OC

>  <reading-unit>
%

>  <measured>
49.6

$$$$

Next, consider the following molecule.
Q. Value lookup for Short-time stability (1h, 56°C) Accuracy [%]; key = C[C@H]1Oc2cc(cnc2N)-c2c(nn(C)c2C#N)CN(C)C(=O)c2ccc(F)cc21
A. 57.8

* * *

Form field: Autosampler (24h, 4°C) Accuracy [%] (one value per entry).
assay-comment: Autosampler stability of ready for injection samples
Type: physicochemical, human
setup-conditions: validation standard ULOV
// return numeric value only (unit: %, not printed)

Reference set, count: 4
>  <compound>
CCOc1cc2ncc(C#N)c(Nc3ccc(OCc4ccccn4)c(Cl)c3)c2cc1NC(=O)/C=C/CN(C)C

>  <Autosampler (24h, 4°C) Accuracy [%] / %>
93.3

$$$$
>  <compound>
C[C@]12CC[C@H](O)CC1=CC[C@@H]1[C@@H]2CC[C@]2(C)C(c3cccnc3)=CC[C@@H]12

>  <Autosampler (24h, 4°C) Accuracy [%] / %>
100.2

$$$$
>  <compound>
CC(C)(C)c1nc(-c2cccc(NS(=O)(=O)c3c(F)cccc3F)c2F)c(-c2ccnc(N)n2)s1

>  <Autosampler (24h, 4°C) Accuracy [%] / %>
100.7

$$$$
>  <compound>
CNC(=O)c1ccccc1Sc1ccc2c(/C=C/c3ccccn3)n[nH]c2c1

>  <Autosampler (24h, 4°C) Accuracy [%] / %>
100.4

$$$$

Q. // lookup Autosampler (24h, 4°C) Accuracy [%] for C[C@H]1Oc2cc(cnc2N)-c2c(nn(C)c2C#N)CN(C)C(=O)c2ccc(F)cc21
A. 99.7

Q. Item CCC1=C[C@@H]2CN(C1)Cc1c([nH]c3ccccc13)[C@@](C(=O)OC)(c1cc3c(cc1OC)N(C)[C@H]1[C@@](O)(C(=O)OC)[C@H](OC(C)=O)[C@]4(CC)C=CCN5CC[C@]31[C@@H]54)C2 has what recorded Autosampler (24h, 4°C) Accuracy [%]?
A. 102.4

Q. Field request: Autosampler (24h, 4°C) Accuracy [%] | item: COc1cc2nccc(Oc3ccc(NC(=O)Nc4cc(C)on4)c(Cl)c3)c2cc1OC
A. 101.6

Q. What value of Autosampler (24h, 4°C) Accuracy [%] has been reported for the following compound? COc1cc2c(Nc3ccc(Br)cc3F)ncnc2cc1OCC1CCN(C)CC1
A. 95.3

Q. Please look up its Autosampler (24h, 4°C) Accuracy [%]: COc1cc2ncnc(Nc3ccc(F)c(Cl)c3)c2cc1NC(=O)/C=C/CN1CCCCC1
A. 98.4

Q. Param item = CCN(CC)CCNC(=O)c1c(C)[nH]c(/C=C2\C(=O)Nc3ccc(F)cc32)c1C ; retrieve measured Autosampler (24h, 4°C) Accuracy [%].
A. 113.4

Q. Entry under review: CN(C)C(=O)c1cc2cnc(Nc3ccc(N4CCNCC4)cn3)nc2n1C1CCCC1 . Reported Autosampler (24h, 4°C) Accuracy [%]?
A. 89.8

Q. // Autosampler (24h, 4°C) Accuracy [%] lookup, key: COc1cc2nccc(Oc3ccc(NC(=O)C4(C(=O)Nc5ccc(F)cc5)CC4)cc3)c2cc1OC [Cabozantinib]
A. 98.7

Q. So what's the measured Autosampler (24h, 4°C) Accuracy [%] for this one? CC(=O)Nc1cccc(-n2c(=O)n(C3CC3)c(=O)c3c(Nc4ccc(I)cc4F)n(C)c(=O)c(C)c32)c1
A. 97.7

Q. # lookup: Autosampler (24h, 4°C) Accuracy [%] of O=C(c1cc(Cc2n[nH]c(=O)c3ccccc23)ccc1F)N1CCN(C(=O)C2CC2)CC1
A. 103.8

Q. For the compound Nc1cccc2c1C(=O)N(C1CCC(=O)NC1=O)C2=O (stereo not shown) [Pomalidomide] , what Autosampler (24h, 4°C) Accuracy [%] is on record?
A. 100.5

Q. Query (compound): Cc1ccc(Nc2nccc(N(C)c3ccc4c(C)n(C)nc4c3)n2)cc1S(N)(=O)=O ; field requested: Autosampler (24h, 4°C) Accuracy [%]
A. 99.8

Q. # get_value(readout='Autosampler (24h, 4°C) Accuracy [%]', item= CNC(=O)c1cc(Oc2ccc(NC(=O)Nc3ccc(Cl)c(C(F)(F)F)c3)cc2)ccn1 )
A. 101.7

Q. I'd like to know its Autosampler (24h, 4°C) Accuracy [%]. The compound in question is CCc1cc2c(cc1N1CCC(N3CCOCC3)CC1)C(C)(C)c1[nH]c3cc(C#N)ccc3c1C2=O
A. 99.3

Q. Requested field: Autosampler (24h, 4°C) Accuracy [%]. Item: CNC(=O)c1ccc(N2C(=S)N(c3cnc(C#N)c(C(F)(F)F)c3)C(=O)C23CCC3)cc1F [Apalutamide]
A. 102.6

Q. Value lookup for Autosampler (24h, 4°C) Accuracy [%]; key = C[C@@H](Oc1cc(-c2cnn(C3CCNCC3)c2)cnc1N)c1c(Cl)ccc(F)c1Cl
A. 96.5

Q. Query (compound): CS(=O)(=O)CCNCc1ccc(-c2ccc3ncnc(Nc4ccc(OCc5cccc(F)c5)c(Cl)c4)c3c2)o1 ; field requested: Autosampler (24h, 4°C) Accuracy [%]
A. 99.7

Q. Data request, read-out Autosampler (24h, 4°C) Accuracy [%], for CC[C@H](Nc1ncnc2[nH]cnc12)c1nc2cccc(F)c2c(=O)n1-c1ccccc1
A. 103.9
